# System: hiPSC CM (iCell Cardiomyocytes)
# Assay Text: Cellular impedance
# Type: cell-based, human
# Conditions Used: 3 µM, 2 h exposure; significant = >3*SD of vehicle
Measure: change in beat rate

Compound	Meas Value
OCCn1cc(-c2ccc3c(c2)CC/C3=N\O)c(-c2ccncc2)n1 [GDC-0879]	increased beat rate
CO[C@@H]1[C@H](N(C)C(=O)c2ccccc2)C[C@H]2O[C@]1(C)n1c3ccccc3c3c4c(c5c6ccccc6n2c5c31)C(=O)NC4 [PKC-412]	increased beat rate
C[C@]12O[C@H](C[C@]1(O)CO)n1c3ccccc3c3c4c(c5c6ccccc6n2c5c31)CNC4=O [CEP-701]	increased beat rate
